target: HDAC11 (Homo sapiens, UniProt Q96DB2); assay: Inhibition of histone deacetylase isoforms, HDAC11
Sequence (Q96DB2 whole entry, canonical isoform): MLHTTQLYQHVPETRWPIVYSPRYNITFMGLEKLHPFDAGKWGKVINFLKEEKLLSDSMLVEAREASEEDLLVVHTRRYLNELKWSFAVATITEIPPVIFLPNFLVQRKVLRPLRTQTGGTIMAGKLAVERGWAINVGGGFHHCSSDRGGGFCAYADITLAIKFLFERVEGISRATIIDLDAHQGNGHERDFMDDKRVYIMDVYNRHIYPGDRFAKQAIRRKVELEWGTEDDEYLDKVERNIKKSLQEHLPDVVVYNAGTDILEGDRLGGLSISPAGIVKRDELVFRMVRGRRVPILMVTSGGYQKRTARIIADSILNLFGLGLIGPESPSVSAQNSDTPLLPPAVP
# maps each entry to its IC50
quantity-name: IC50

- compound-structure-string: "O=C(NO)c1ccc(NC(=O)[C@H](Cc2ccc3ccccc3c2)NC(=O)c2ccccc2)cc1"
  experimental-target: "HDAC11 (Homo sapiens, UniProt Q96DB2)"
  quantity-name: "IC50"
  observed-value: "441 nM"
- compound-structure-string: "O=C(NO)c1ccc(NC(=O)[C@H](Cc2ccc3ccccc3c2)NC(=O)c2ccc3c(c2)OCO3)cc1"
  experimental-target: "HDAC11 (Homo sapiens, UniProt Q96DB2)"
  quantity-name: "IC50"
  observed-value: "336 nM"

----------
# maps each entry to its IC50
biological target: HDAC8 (Homo sapiens); assay: Inhibition of histone deacetylase isoforms, HDAC8
Sequence (Q9BY41 whole entry, canonical isoform): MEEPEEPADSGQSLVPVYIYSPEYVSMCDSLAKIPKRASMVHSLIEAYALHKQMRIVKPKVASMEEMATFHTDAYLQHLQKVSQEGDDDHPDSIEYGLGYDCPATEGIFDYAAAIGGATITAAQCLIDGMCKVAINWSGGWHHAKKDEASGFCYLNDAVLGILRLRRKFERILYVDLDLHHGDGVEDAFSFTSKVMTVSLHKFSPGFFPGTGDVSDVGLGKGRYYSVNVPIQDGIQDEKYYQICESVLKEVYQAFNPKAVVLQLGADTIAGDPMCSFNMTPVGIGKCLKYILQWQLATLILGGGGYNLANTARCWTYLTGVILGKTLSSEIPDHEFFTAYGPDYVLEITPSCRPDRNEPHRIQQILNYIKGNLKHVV
quantity-name: IC50 (nM)

- compound: "O=C(NO)c1ccc(NC(=O)[C@H](Cc2ccc3ccccc3c2)NC(=O)c2ccc3c(c2)OCO3)cc1 [Compound t]"
  quantity-name: "IC50"
  value-unit: "nM"
  observed-value: 162
- compound: "O=C(NO)c1ccc(NC(=O)[C@H](Cc2ccc3ccccc3c2)NC(=O)c2ccccc2)cc1 [Compound g]"
  quantity-name: "IC50"
  value-unit: "nM"
  observed-value: 492

----------
# maps each entry to its IC50
biological target: UniProt:Q9UKV0; experiment: Inhibition of histone deacetylase isoforms, HDAC9
Sequence (Q9UKV0 whole entry, canonical isoform): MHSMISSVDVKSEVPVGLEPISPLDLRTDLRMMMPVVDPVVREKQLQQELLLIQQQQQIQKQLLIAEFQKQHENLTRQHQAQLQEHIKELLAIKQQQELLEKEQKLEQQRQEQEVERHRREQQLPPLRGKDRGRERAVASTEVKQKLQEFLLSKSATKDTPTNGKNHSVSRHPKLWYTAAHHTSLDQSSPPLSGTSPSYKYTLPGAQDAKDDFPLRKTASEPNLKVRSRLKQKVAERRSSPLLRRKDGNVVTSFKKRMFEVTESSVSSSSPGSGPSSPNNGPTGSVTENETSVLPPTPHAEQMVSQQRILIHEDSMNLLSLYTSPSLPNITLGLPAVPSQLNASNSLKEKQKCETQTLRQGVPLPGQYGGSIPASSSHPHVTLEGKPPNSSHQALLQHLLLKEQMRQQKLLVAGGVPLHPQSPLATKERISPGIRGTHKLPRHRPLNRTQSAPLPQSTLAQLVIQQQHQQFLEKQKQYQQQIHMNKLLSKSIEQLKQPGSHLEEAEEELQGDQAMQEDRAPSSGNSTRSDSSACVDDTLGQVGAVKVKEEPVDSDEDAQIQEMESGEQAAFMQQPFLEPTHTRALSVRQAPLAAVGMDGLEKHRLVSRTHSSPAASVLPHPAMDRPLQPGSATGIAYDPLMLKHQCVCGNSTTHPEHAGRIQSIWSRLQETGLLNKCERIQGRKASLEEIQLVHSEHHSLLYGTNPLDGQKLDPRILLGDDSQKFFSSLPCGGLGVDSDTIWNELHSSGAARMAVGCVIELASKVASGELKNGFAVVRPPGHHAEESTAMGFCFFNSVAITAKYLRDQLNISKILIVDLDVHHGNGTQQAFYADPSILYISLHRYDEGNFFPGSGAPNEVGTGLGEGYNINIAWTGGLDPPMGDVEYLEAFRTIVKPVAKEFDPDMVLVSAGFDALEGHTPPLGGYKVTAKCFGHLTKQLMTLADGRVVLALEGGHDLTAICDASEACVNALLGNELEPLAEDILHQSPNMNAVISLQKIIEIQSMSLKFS

- compound-structure-string: "O=C(NO)c1ccc(NC(=O)[C@H](Cc2ccc3ccccc3c2)NC(=O)c2ccccc2)cc1"
  experimental-target: "UniProt:Q9UKV0"
  IC50: "4.15 µM"
- compound-structure-string: "O=C(NO)c1ccc(NC(=O)[C@H](Cc2ccc3ccccc3c2)NC(=O)c2ccc3c(c2)OCO3)cc1"
  experimental-target: "UniProt:Q9UKV0"
  IC50: "> 10 µM"
- compound-structure-string: "CCN(CC)Cc1ccc2cc(COC(=O)Nc3ccc(C(=O)NO)cc3)ccc2c1.Cl"
  experimental-target: "UniProt:Q9UKV0"
  IC50: "0.518 µM"

Data origin, for the record: patent US8637702B2
